Answer each item with its documented normalized growth.
RUN DESCRIPTION: chemical genetic growth profiling, strain panel (AID 1159580);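 note: tested at 20 µM; growth read once vehicle control cultures reached saturation at 30 °C; 1 = growth at the plate median or of vehicle wells; lower values mean less growth of the strain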
ASSAY SETUP: S. cerevisiae deletion strains, growth OD, locus YOR083W, strain WHI5, hits give low values
Out of some 5,500 compounds screened, about 2,000 (36%) were called active. Roughly 18% stayed inconclusive and do not appear here. The list shows a part of the results.
Give only the figure.

If you can, please state the reported normalized growth value of CN[C@@H]1[C@@H](O)C(OC2[C@@H](N)C[C@@H](N)[C@H](O[C@H]3O[C@H](C(C)O)[C@@H](O)[C@H](O)[C@H]3N)[C@H]2O)OC[C@]1(C)O (some centres undefined) .
0.976

If you can, please state the reported normalized growth value of CC(=O)[C@@]1(O)CCC2C3C[C@H](C)C4=CC(=O)C=CC4(C)[C@@]3(F)[C@@H](O)C[C@@]21C (some centres undefined) .
0.974

If you can, please state the reported normalized growth value of C[C@H]1O[C@H](OC2[C@@H](O)[C@@H](O)C(O)[C@H](O)[C@H]2O)[C@@H](N)C[C@@H]1N=C(N)C(=O)O (some centres undefined) .
0.934

If you can, please state the reported normalized growth value of CN[C@@H]1C(O)[C@@H](O[C@@H]2[C@@H](O)[C@H](O[C@H]3OC(CN)=CC[C@H]3N)[C@@H](N)C[C@H]2N)OC[C@]1(C)O (some centres undefined) .
0.992

If you can, please state the reported normalized growth value of O=C(O[C@@H]1Cc2c(O)cc(O)cc2O[C@@H]1c1cc(O)c(=O)c2c(O)c(O)cc([C@H]3Oc4cc(O)cc(O)c4C[C@H]3OC(=O)c3cc(O)c(O)c(O)c3)c2c1)c1cc(O)c(O)c(O)c1 .
0.543

If you can, please state the reported normalized growth value of O=c1cc(-c2ccc(O)cc2)oc2cc(O[C@@H]3O[C@H](CO)[C@@H](O)[C@H](O)[C@H]3O)cc(O)c12 .
0.974

If you can, please state the reported normalized growth value of CCC1OC(=O)[C@H](C)C(=O)[C@H](C)[C@@H](OC2O[C@H](C)C[C@H](N(C)C)[C@H]2O)[C@](C)(OC)C2(CCCn3cnc(-c4cccnc4)c3)C[C@@H](C)C(=O)[C@H](C)[C@H]3N(C2)C(=O)O[C@]13C (some centres undefined) .
1.01

If you can, please state the reported normalized growth value of O=c1c(O)c(-c2ccc(O)c(O)c2)oc2cc(O)cc(O)c12 .
0.808

If you can, please state the reported normalized growth value of C=C[C@H]1CN2CC[C@H]1C[C@@H]2[C@@H](OC(=O)OCC)c1ccnc2ccc(OC)cc12 .
0.963

If you can, please state the reported normalized growth value of CCN[C@@H]1C[C@H](N)[C@@H](O[C@H]2OC(CN)=CC[C@H]2N)[C@H](O)[C@H]1OC1OC[C@](C)(O)[C@H](NC)[C@H]1O (some centres undefined) .
0.995

If you can, please state the reported normalized growth value of C[C@@H]1O[C@@H](OC[C@H]2OC(Oc3c(-c4ccc(O)c(O)c4)oc4cc(O)cc(O)c4c3=O)[C@H](O)[C@@H](O)[C@@H]2O)[C@H](O)[C@H](O)[C@H]1O (some centres undefined) .
0.97

If you can, please state the reported normalized growth value of CCCC(C)(COC(N)=O)COC(=O)NC(C)C (centres undefined) .
1.03

If you can, please state the reported normalized growth value of CC(C)(C)NCC(O)c1cc(Cl)c(N)c(Cl)c1 (centres undefined) .
1

If you can, please state the reported normalized growth value of COc1ccc(Cl)cc1C(=O)NCCc1ccc(S(=O)(=O)NC(=O)NC2CCCCC2)cc1 .
1.01
